Ref: paper PMC4076021

- system: UniProtKB O60341
- assay-overview: biochemical
- Type: biochemical
- assay-context: read-out: kinact/Ki(inact)
reported-property: kinact/KI (M⁻¹ s⁻¹)
Supply the numeric figure in M⁻¹ s⁻¹, leaving out any unit text.

Entry NNCCCOc1ccccc1 [10b] ; kinact/KI = 300

Measured kinact/KI, `COc1ccc(CCCNN)cc1.Cl.Cl` : 317

The value of kinact/KI measured for the compound NNCCc1ccc(NC(=O)CCCc2ccc([N+](=O)[O-])cc2)cc1 [12i] turned out to be 12300

Lab note: NNCCc1ccc(NC(=O)CCc2c[nH]c3ccccc23)cc1 [15a] gave kinact/KI of 16700

Summary for this compound, `NNCCc1ccc(NC(=O)/C=C/c2ccccc2)cc1` : kinact/KI is 28300

Lab book: kinact/KI of NNCCc1ccc(NC(=O)CCCCc2ccccc2)cc1 [12e] noted as 14300

The compound listed as CN(C(=O)CCCc1ccccc1)c1ccc(CCNN)cc1.O=C(O)C(=O)O [12l] shows kinact/KI equal to 2000

Kindly note the recorded kinact/KI for NNCCc1ccc(NC(=O)CCc2ccccc2)cc1 [12c] , which is 15300

Given item NNCCc1ccc(N(Cc2ccccc2)C(=O)CCCc2ccccc2)cc1 [12m] , the value recorded as its kinact/KI is 2330

What the record says about NNCCc1ccc(NC(=O)Cc2ccccc2)cc1 [12b] : kinact/KI is 9000

Please fill in: kinact/KI reported for NNCCc1ccc(NC(=O)c2ccccc2)cc1 [12a] = 11700

Sample NNCCc1ccc(NC(=O)CCCc2ccc(Cl)cc2)cc1 [12f] ; kinact/KI observed: 18300

Short answer for `NNCCCCc1ccccc1` : kinact/KI was 91.7

Please fill in: kinact/KI reported for NNCCOc1ccccc1 [10a] = 56.7
